Data provenance is ChEMBL document CHEMBL1139972.

# assay-remarks: Cmax in rat at 3 mg/kg, po
# Assay type: ADME, organism-based
# Set-up: dose 3 mg/kg, route oral
# experimental-conditions: in vivo
experimental-endpoint: Cmax (ng/mL)
Report as a plain number; the unit ng/mL is understood.

Request: Any idea what its Cmax is? The molecule is CCN1C(=O)CC(C)(C)c2cc(C)c(-c3cc(CCC(=O)O)ccc3OC(F)(F)F)cc21
Result: 678

----------
# assay-remarks: AUC in rat at 3 mg/kg, po
# Format: ADME, organism-based
# Parameters: dose 3 mg/kg, route oral
# experimental-conditions: plasma
experimental-endpoint: AUC
Note to self: number, then unit, no commentary.

Request: For the molecule CCN1C(=O)CC(C)(C)c2cc(C)c(-c3cc(CCC(=O)O)ccc3OC(F)(F)F)cc21 , what AUC is on record?
Result: 6130 ng·h/mL

----------
Assign EC50 to each entry below.
# assay-remarks: Activity at RXR-PPARgamma in human preadipocytes assessed as induction of adipocytes fatty acid binding protein
# Format: cell-based
Express it in nM; write the number only.

Request: Recorded EC50 for Cc1cc2c(cc1-c1cc([C@@H]3C[C@H]3C(=O)O)ccc1OC(F)(F)F)N(C(C)C)C(=O)CC2(C)C , please?
Result: 266

Request: Reported EC50 for CCN1C(=O)CC(C)(C)c2cc(C)c(-c3cc(CCC(=O)O)ccc3OC(F)(F)F)cc21 : what is it?
Result: 1200

Request: Give its EC50 value. Item: CCN1C(=O)CC(C)(C)c2cc(C)c(-c3cc(/C=C4\SC(=O)NC4=O)ccc3OC(F)(F)F)cc21
Result: 139

Request: Need EC50 of CCN1C(=O)CC(C)(C)c2cc(C)c(-c3cc([C@@H]4C[C@H]4C(=O)O)ccc3OC(F)(F)F)cc21 , thanks.
Result: 581

----------
# target-or-system: Retinoic acid receptor RXR-alpha (Homo sapiens) (UniProt P19793)
# Sequence (P19793 whole entry, the tested form may be a part): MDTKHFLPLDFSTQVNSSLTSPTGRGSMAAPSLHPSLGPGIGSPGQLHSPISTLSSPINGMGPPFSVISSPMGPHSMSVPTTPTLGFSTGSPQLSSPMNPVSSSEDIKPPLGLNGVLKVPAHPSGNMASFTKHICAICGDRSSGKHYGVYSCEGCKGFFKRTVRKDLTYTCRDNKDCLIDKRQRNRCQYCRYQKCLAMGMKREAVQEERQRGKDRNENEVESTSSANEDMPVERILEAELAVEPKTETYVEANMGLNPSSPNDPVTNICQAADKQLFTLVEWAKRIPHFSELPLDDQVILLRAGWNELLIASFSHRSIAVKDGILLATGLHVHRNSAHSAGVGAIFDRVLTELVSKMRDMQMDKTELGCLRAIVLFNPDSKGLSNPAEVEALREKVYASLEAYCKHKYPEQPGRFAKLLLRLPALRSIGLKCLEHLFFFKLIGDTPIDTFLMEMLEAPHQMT
# assay-remarks: Activity at RXRalpha by GAL4DNA cotransfection assay relative to 5-((3-(1-ethyl-4,4,6-trimethyl-2-oxo-1,2,3,4-tetrahydroquinolin-7-yl)-4-(trifluoromethoxy)phenyl)methylene)thiazolidine-2,4-dione
# Parameters: concentration or dose not given beside the values
experimental-endpoint: Activity (%)
Just the number please, in %, no unit attached.

Request: # input compound: CCN1C(=O)CC(C)(C)c2cc(C)c(-c3cc(C4CC4C(=O)O)ccc3OC(F)(F)F)cc21 (racemic) ; wanted: its Activity
Result: 88

Request: Give the measured Activity of Cc1cc2c(cc1-c1cc(C3CC3C(=O)O)ccc1OCC(F)(F)F)N(C)C(=O)CC2(C)C (racemic) .
Result: 108

Request: // lookup Activity for CCN1C(=O)CC(C)(C)c2cc(C)c(-c3cc(/C=C(\C)C(=O)O)ccc3OC(F)(F)F)cc21
Result: 81

Request: Reported Activity for Cc1cc2c(cc1-c1cc(CCC(=O)O)ccc1OC(F)(F)F)N(C(C)C)C(=O)CC2(C)C : what is it?
Result: 80

Request: What value of measured Activity is listed for CCN1C(=O)CC(C)(C)c2cc(C)c(-c3cc(CCC(=O)O)ccc3OC(F)(F)F)cc21 ?
Result: 79

Request: May I ask what Activity has been recorded for COc1ccc(C2CC2C(=O)O)cc1-c1cc2c(cc1C)C(C)(C)CC(=O)N2C(C)C (racemic) ?
Result: 50

Request: Please look up its Activity: CCN1C(=O)CC(C)(C)c2cc(C)c(-c3cc(/C=C\C(=O)O)ccc3OC(F)(F)F)cc21
Result: 97

Request: Returns the measured Activity for the input compound. Input: Cc1cc2c(cc1-c1cc([C@@H]3C[C@H]3C(=O)O)ccc1OC(F)(F)F)N(C(C)C)C(=O)CC2(C)C
Result: 70

----------
# assay-remarks: Oral bioavailability in rat at 3 mg/kg
# Assay type: ADME, organism-based
# experimental-conditions: in vivo
experimental-endpoint: bioavailability

Request: Endpoint output: bioavailability of CCN1C(=O)CC(C)(C)c2cc(C)c(-c3cc(CCC(=O)O)ccc3OC(F)(F)F)cc21 . Value?
Result: 71%

----------
# assay-remarks: Cmax in high cholesterol diet fed Sprague-Dawley rat at 30 mg/kg, po after 8 days
# Format: ADME, organism-based
# Parameters: dose 30 mg/kg, route oral
# experimental-conditions: in vivo
experimental-endpoint: Cmax
Note: a bare number is incomplete; add the unit.

Request: Item under review: CCN1C(=O)CC(C)(C)c2cc(C)c(-c3cc(CCC(=O)O)ccc3OC(F)(F)F)cc21 . Reported Cmax?
Result: 7510 ng/mL

----------
# assay-remarks: Clearance in rat at 3 mg/kg, po
# Type: ADME, organism-based
# Design: dose 3 mg/kg, route oral
# experimental-conditions: in vivo
experimental-endpoint: CL/F (mL/min/kg)
Entry rule: numbers only, all in mL/min/kg.

Request: Returns the measured CL/F for the input compound. Input: CCN1C(=O)CC(C)(C)c2cc(C)c(-c3cc(CCC(=O)O)ccc3OC(F)(F)F)cc21
Result: 4.6

----------
# assay-remarks: Half life in rat at 3 mg/kg, po
# Assay type: ADME, organism-based
# Parameters: dose 3 mg/kg, route oral
# experimental-conditions: in vivo
experimental-endpoint: half-life (h)
A number alone suffices; assume h.

Request: // half-life lookup, key: CCN1C(=O)CC(C)(C)c2cc(C)c(-c3cc(CCC(=O)O)ccc3OC(F)(F)F)cc21
Result: 24

----------
# target-or-system: UniProt P19793
# assay-remarks: Activity at RXRalpha by GAL4DNA cotransfection assay
pEC50: −log10 of the molar value.
Decide by pEC50: equal to or exceeding 7 means 1, less means 0.

Request: pEC50 >= 7 for CCN1C(=O)CC(C)(C)c2cc(C)c(-c3cc(CCCC(=O)O)ccc3OC(F)(F)F)cc21 ?
Result: 0

Request: hey, is pEC50 for this one >= 7? Cc1cc2c(cc1-c1cc([C@H]3C[C@@H]3C(=O)O)ccc1OC(F)(F)F)N(C(C)C)C(=O)CC2(C)C
Result: 0

Request: Tell me whether pEC50 is at least 7 here: COc1ccc(CCC(=O)O)cc1-c1cc2c(cc1C)C(C)(C)CC(=O)N2C(C)C
Result: 0

Request: Please indicate if the recorded pEC50 for CCN1C(=O)CC(C)(C)c2cc(C)c(-c3cc([C@H]4C[C@@H]4C(=O)O)ccc3OC(F)(F)F)cc21 meets or exceeds 7.
Result: 0

Request: Textbook exercise: given the entry Cc1cc2c(cc1-c1cc(CCC(=O)O)ccc1OCC(F)(F)F)N(C(C)C)C(=O)CC2(C)C , state whether its pEC50 is greater than or equal to 7.
Result: 1

Request: Does the compound Cc1cc2c(cc1-c1cc([C@@H]3C[C@H]3C(=O)O)ccc1OC(F)(F)F)N(C(C)C)C(=O)CC2(C)C have recorded pEC50 that is 7 or more?
Result: 1

Request: Please check the record COc1ccc(C2CC2C(=O)O)cc1-c1cc2c(cc1C)C(C)(C)CC(=O)N2C(C)C (racemic) and state if its pEC50 is at or above 7.
Result: 0

Request: API: above_or_equal(metric=pEC50, cutoff=7) for item CCN1C(=O)CC(C)(C)c2cc(C)c(-c3cc(CCC(=O)O)ccc3OC(F)(F)F)cc21
Result: 1

Request: Record Cc1cc2c(cc1-c1cc(CCC(=O)O)ccc1OC(F)(F)F)N(C)C(=O)CC2(C)C ; criterion: pEC50 no lower than 7. Met?
Result: 1

Request: API: above_or_equal(metric=pEC50, cutoff=7) for item CCN1C(=O)CC(C)(C)c2cc(C)c(-c3cc(/C=C\C(=O)O)ccc3OC(F)(F)F)cc21
Result: 1

Request: Say whether Cc1cc2c(cc1-c1cc(C3CC3C(=O)O)ccc1OC(F)(F)F)N(C(C)C)C(=O)CC2(C)C (racemic) shows pEC50 of 7 or more.
Result: 1

Request: Identify whether the reported pEC50 of the following compound is 7 or greater: CCN1C(=O)CC(C)(C)c2cc(C)c(-c3cc(/C(C)=C/C(=O)O)ccc3OC(F)(F)F)cc21
Result: 0

Request: Tell me whether pEC50 is at least 7 here: CCN1C(=O)CC(C)(C)c2cc(C)c(-c3cc(CC(C)C(=O)O)ccc3OC(F)(F)F)cc21 (configuration not stated)
Result: 0

Request: Does the compound CCN1C(=O)CC(C)(C)c2cc(C)c(-c3cc(C(C)CC(=O)O)ccc3OC(F)(F)F)cc21 (configuration not stated) have recorded pEC50 that is 7 or more?
Result: 1

----------
Would you mind telling me the reported Activity of each entry?
# Species: Homo sapiens
# assay-remarks: Activation of RXR-LXR heterodimer assessed as induction of ABCA1 mRNA relative to 5-((3-(1-ethyl-4,4,6-trimethyl-2-oxo-1,2,3,4-tetrahydroquinolin-7-yl)-4-(trifluoromethoxy)phenyl)methylene)thiazolidine-2,4-dione
# Set-up: concentration or dose not given beside the values

Request: What value of measured Activity is listed for CCN1C(=O)CC(C)(C)c2cc(C)c(-c3cc(/C=C/C(=O)O)ccc3OC(F)(F)F)cc21 ?
Result: 81%

Request: Suppose we examine the molecule Cc1cc2c(cc1-c1cc(CCC(=O)O)ccc1OC(F)(F)F)N(C(C)C)C(=O)CC2(C)C ; what Activity value has been reported?
Result: 59%

Request: Record request: Activity value, item Cc1cc2c(cc1-c1cc(CCC(=O)O)ccc1OCC(F)(F)F)N(C(C)C)C(=O)CC2(C)C
Result: 45%

Request: What measured Activity goes with CCN1C(=O)CC(C)(C)c2cc(C)c(-c3cc(/C=C(\C)C(=O)O)ccc3OC(F)(F)F)cc21 ?
Result: 49%

Request: Activity lookup needed for CCN1C(=O)CC(C)(C)c2cc(C)c(-c3cc(/C=C\C(=O)O)ccc3OC(F)(F)F)cc21 , thanks.
Result: 75%

Request: # query: Activity of entry CCN1C(=O)CC(C)(C)c2cc(C)c(-c3cc(CCC(=O)O)ccc3OC(F)(F)F)cc21
Result: 70%

Request: I have this molecule here, CCN1C(=O)CC(C)(C)c2cc(C)c(-c3cc(C(C)CC(=O)O)ccc3OC(F)(F)F)cc21 (configuration not stated) , and I need its recorded Activity.
Result: 160%
